Target: T1, HLA-A*02:01 (human)
T1 construct: MHC monomers first loaded with a UV-sensitive peptide (not identified) that is cleaved by UV light and exchanged for the test peptide; captured on streptavidin plates, detected with anti-β2m; also called peptide-receptive MHC molecules; MHC class I
Assay: UV-ligand exchange + anti-b2m ELISA; peptide exchange yield grade (+ >=10%, ++ >=20%, +++ >=50, ++++ >=75%)
RECORDED METRIC: peptide exchange yield

Below, 7 binders whose answers are already recorded.
{"BINDER": "KLASMLETL (source gene PRKCDBP) [KLASMLETL (SEQ ID NO: 80)]", "peptide exchange yield": "50 to 75%"}
{"BINDER": "MLLSSLVSL (source gene VKORC1) [MLLSSLVSL (SEQ ID NO: 91)]", "peptide exchange yield": "20 to 50%"}
{"BINDER": "ALFSFVTAL (source gene TTYH3) [ALFSFVTAL (SEQ ID NO: 44)]", "peptide exchange yield": "50 to 75%"}
{"BINDER": "KLTDVGIATL (source gene ALPK2) [KLTDVGIATL (SEQ ID NO: 95)]", "peptide exchange yield": "20 to 50%"}
{"BINDER": "YLKDELDEL (source gene SOGA2) [YLKDELDEL (SEQ ID NO: 43)]", "peptide exchange yield": "50 to 75%"}
{"BINDER": "TLLETEMLL (source gene CEP44) [TLLETEMLL (SEQ ID NO: 111)]", "peptide exchange yield": "20 to 50%"}
{"BINDER": "TLISELVQA (source gene CUL7) [TLISELVQA (SEQ ID NO: 97)]", "peptide exchange yield": "20 to 50%"}

Next binder, peptide exchange yield to be filled in.
The binder identified as FVMSEIRTV (source gene ZNF618) [FVMSEIRTV (SEQ ID NO: 85)] registered its peptide exchange yield at 50 to 75%

# credit: patent US20160287687A1
